All figures here come from patent US10968215B2.

This listing pairs compounds with measured pIC50.
biological target: PRC2 complex (EZH2 Y641F/EED/SUZ12/RbAp48/AEBP2) (Homo sapiens (Human), UniProt Q15910, Y641F); assay: Activity of a compound to PRC2 complex (EZH2 Y641F), HTRF; conditions: read-out: IC50 (EZH2_Y641F); EZH2 Y641F PRC2 complex, HTRF; class symbols
Sequence (Q15910 whole entry Y641F): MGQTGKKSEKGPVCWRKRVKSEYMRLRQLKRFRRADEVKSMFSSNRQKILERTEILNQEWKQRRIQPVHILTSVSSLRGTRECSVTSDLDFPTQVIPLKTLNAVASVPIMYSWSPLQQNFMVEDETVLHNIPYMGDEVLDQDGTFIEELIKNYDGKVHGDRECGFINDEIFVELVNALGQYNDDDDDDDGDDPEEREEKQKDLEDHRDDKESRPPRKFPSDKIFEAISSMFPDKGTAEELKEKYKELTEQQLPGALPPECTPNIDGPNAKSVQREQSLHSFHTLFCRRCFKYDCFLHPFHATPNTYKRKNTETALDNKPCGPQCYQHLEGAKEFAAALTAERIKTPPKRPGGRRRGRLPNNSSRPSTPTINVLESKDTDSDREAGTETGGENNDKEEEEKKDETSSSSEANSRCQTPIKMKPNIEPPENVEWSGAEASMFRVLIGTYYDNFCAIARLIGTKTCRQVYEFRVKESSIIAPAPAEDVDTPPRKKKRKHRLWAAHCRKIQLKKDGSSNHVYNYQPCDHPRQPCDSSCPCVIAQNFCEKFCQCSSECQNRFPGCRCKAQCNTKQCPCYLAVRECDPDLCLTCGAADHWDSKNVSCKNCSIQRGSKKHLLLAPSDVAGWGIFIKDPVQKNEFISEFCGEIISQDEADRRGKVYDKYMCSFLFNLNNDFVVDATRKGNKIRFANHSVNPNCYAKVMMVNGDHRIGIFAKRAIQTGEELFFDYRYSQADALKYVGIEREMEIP
Sequence (O75530 whole entry partner): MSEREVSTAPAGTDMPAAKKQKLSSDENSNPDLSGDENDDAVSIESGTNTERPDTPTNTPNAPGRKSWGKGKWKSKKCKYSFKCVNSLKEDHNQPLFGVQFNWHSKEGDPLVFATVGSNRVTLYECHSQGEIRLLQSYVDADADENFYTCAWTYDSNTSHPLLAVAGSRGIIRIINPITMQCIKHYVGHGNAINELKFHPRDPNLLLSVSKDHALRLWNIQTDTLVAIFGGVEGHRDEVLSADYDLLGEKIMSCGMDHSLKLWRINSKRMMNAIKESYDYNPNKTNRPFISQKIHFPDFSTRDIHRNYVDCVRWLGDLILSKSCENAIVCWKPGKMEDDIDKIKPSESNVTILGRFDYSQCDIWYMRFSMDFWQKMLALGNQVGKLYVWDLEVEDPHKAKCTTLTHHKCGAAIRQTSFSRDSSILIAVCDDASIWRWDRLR
Sequence (Q15022 whole entry partner): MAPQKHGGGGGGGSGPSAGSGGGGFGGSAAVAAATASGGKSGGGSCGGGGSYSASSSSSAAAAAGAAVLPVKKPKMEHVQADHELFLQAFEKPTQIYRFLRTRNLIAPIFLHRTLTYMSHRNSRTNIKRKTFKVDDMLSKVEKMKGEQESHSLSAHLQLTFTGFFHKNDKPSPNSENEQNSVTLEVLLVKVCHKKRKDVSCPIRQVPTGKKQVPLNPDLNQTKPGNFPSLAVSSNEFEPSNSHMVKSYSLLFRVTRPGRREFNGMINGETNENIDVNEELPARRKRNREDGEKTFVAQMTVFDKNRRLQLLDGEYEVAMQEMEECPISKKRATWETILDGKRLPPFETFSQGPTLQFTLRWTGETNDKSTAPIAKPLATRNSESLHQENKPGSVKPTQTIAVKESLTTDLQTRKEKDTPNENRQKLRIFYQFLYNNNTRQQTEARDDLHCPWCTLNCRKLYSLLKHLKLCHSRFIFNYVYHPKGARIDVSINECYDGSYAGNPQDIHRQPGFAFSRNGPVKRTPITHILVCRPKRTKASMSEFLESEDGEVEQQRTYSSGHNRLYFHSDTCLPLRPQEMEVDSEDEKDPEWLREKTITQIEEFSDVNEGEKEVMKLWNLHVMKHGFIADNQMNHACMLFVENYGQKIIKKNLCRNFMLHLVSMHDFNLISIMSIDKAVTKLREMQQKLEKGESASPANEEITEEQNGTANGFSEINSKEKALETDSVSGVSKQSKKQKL
Sequence (Q09028 whole entry partner): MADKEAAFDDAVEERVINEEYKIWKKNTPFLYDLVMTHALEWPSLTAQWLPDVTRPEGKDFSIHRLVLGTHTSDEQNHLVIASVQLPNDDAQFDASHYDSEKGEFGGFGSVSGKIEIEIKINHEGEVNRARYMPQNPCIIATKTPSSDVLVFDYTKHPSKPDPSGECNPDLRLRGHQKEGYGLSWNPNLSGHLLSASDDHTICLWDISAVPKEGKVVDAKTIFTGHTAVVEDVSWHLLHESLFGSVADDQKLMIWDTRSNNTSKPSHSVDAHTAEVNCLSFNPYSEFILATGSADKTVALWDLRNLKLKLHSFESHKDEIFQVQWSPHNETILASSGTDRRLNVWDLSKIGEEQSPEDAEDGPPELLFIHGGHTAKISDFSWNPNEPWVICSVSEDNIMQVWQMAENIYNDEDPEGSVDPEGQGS
Sequence (Q6ZN18 whole entry partner): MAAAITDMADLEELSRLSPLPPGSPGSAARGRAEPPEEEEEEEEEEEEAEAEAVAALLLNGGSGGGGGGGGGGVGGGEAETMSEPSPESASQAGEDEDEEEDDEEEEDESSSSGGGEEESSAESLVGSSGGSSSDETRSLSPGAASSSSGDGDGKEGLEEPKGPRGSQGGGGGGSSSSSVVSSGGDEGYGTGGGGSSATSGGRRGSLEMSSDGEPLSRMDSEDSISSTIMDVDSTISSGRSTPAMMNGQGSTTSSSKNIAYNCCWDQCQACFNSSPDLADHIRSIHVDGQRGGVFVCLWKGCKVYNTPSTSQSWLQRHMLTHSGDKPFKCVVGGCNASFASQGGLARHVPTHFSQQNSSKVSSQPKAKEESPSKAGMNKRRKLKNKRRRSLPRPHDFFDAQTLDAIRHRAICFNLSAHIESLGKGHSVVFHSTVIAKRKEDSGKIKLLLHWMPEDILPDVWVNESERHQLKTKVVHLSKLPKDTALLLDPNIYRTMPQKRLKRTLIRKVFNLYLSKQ
pIC50: −log10 of the molar value.

Compound	pIC50
COc1cc(C)[nH]c(=O)c1CNC(=O)c1cc2c(-c3ccc(C)nc3C)ccn2c([C@H](C)N2CCN(CC(F)(F)F)CC2)c1C (single isomer, unassigned) [Compound 178]	6.00 to 7.00
CCOC(C)c1c(C)c(C(=O)NCc2c(C)cc(C)[nH]c2=O)cc2cccn12 (centres unmarked)	5.00 to 6.00
Cc1cc(C)c(CNC(=O)c2cc3cccn3c(C(C)OCc3ccnn3C)c2C)c(=O)[nH]1 (centres unmarked)	> 7.00
Cc1cc(C)c(CNC(=O)c2cc3cccn3c(C(C)OCC(C)C)c2C)c(=O)[nH]1 (centres unmarked)	5.00 to 6.00
COc1cc(C)[nH]c(=O)c1CNC(=O)c1cc2cc(-c3cncs3)cn2c(C(C)N2CCN(CC(F)(F)F)CC2)c1C (centres unmarked)	> 7.00
Cc1cc(C)c(CNC(=O)c2cc3cc(-c4cccnc4)cn3c(C(C)N3CCC(N(C)C)CC3)c2C)c(=O)[nH]1 (centres unmarked)	> 7.00
CCN(c1c(C)c(C(=O)NCc2c(C)cc(C)[nH]c2=O)cc2cc(-c3ccnn3C)cn12)C1CCOCC1 [Example 65]	> 7.00
Cc1cc(C)c(CNC(=O)c2cc3cc(-c4ccc(N5CCOCC5)cc4)cn3c(C(C)N3CCOCC3)c2C)c(=O)[nH]1 (centres unmarked)	> 7.00
C#CCOC(C)c1c(C)c(C(=O)NCc2c(C)cc(C)[nH]c2=O)cc2cccn12 (centres unmarked)	6.00 to 7.00
Cc1cc(C)c(CNC(=O)c2cc3c(-c4ccc(N5CCOCC5)cc4)ccn3c(C(C)N3CCOCC3)c2C)c(=O)[nH]1 (centres unmarked) [Example 119]	> 7.00
Cc1cc(C(F)(F)F)c(CNC(=O)c2cc3c(-c4ccc(N)nc4)ccn3c(C(C)N3CCN(CC(F)(F)F)CC3)c2C)c(=O)[nH]1 (centres unmarked)	> 7.00
Cc1cc(C)c(CNC(=O)c2cc3cc(-c4ccc(CN5CCOCC5)cc4)cn3c(C(C)N3CCOCC3)c2C)c(=O)[nH]1 (centres unmarked)	> 7.00
Cc1cc(C)c(CNC(=O)c2cc3cc(Br)cn3c(C(C)N3CCN(CCC(F)(F)F)CC3)c2C)c(=O)[nH]1 (centres unmarked) [Example 105]	5.00 to 6.00
Cc1cc(C)c(CNC(=O)c2cc3cc(Cl)cn3c(C(C)N3CCC(N(C)C)CC3)c2C)c(=O)[nH]1 (centres unmarked)	> 7.00
COc1cc(C)[nH]c(=O)c1CNC(=O)c1cc2c(-c3ccc(C)nn3)ccn2c([C@H](C)N2CCN(CC(F)(F)F)CC2)c1C (single isomer, unassigned) [Compound 200]	> 7.00
COc1ccc(F)c(-c2cc3cc(C(=O)NCc4c(C)cc(C)[nH]c4=O)c(C)c(C(C)N4CCOCC4)n3c2)c1 (centres unmarked)	6.00 to 7.00
Cc1cc(C)c(CNC(=O)c2cc3cc(Br)cn3c(C(C)N3CCN(CCC(F)(F)F)CC3)c2C)c(=O)[nH]1 (centres unmarked) [Example 104]	6.00 to 7.00
Cc1cc(C)c(CNC(=O)c2cc3cc(-c4cncs4)cn3c(C(C)N3CCN(CC(F)(F)F)CC3)c2C)c(=O)[nH]1 (centres unmarked) [Example 141]	6.00 to 7.00
Cc1cc(C)c(CNC(=O)c2cc3cc(Br)cn3c(C(C)N3CCC(C#N)CC3)c2C)c(=O)[nH]1 (centres unmarked)	6.00 to 7.00
Cc1cc(C)c(CNC(=O)c2cc3c(Cl)ccn3c(C(C)N3CCOCC3)c2C)c(=O)[nH]1 (centres unmarked)	> 7.00
